study_target: Horseradish peroxidase (HRP) (Armoracia rusticana, UniProt P00433)
Sequence (P00433 31-338 limits assumed): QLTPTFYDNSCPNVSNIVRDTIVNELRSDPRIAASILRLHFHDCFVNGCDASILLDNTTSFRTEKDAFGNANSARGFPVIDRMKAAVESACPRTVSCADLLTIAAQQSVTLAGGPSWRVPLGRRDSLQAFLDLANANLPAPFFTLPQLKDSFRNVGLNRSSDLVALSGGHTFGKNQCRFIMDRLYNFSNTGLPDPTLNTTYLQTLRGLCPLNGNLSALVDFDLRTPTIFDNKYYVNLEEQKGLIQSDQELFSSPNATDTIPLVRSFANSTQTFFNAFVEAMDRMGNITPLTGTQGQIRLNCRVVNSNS
endpoint_name: IC50 (µM)

molecule | IC50, µM
O=C(NCCCNC(=O)c1cc(O)c(O)c(O)c1)c1cc(O)c(O)c(O)c1 [compound 12] | 3.06
O=C(OCCCOC(=O)c1cc(O)c(O)c(O)c1)c1cc(O)c(O)c(O)c1 [compound 2] | 2.28
O=C(OCCCOC(=O)c1cc(O)c(O)c(O)c1)c1ccc(O)c(O)c1 [compound 5] | 3.73

[I] O=C(OCCOC(=O)c1cc(O)c(O)c(O)c1)c1cc(O)c(O)c(O)c1 [compound 4]
[II] O=C(Nc1ccc(OC(=O)c2cc(O)c(O)c(O)c2)cc1)c1cc(O)c(O)c(O)c1 [compound 7]
Input pair: I , II . Output: entry with lower IC50. Write down the label attached to your selection.
I
(I: 2.84 µM, II: 5.81 µM)

Reference source: paper PMC10254444
